- tested-target: Integrin alpha-V/beta-5 (Homo sapiens, UniProt P06756+P18084)
- Sequence (P06756 31-889 limits assumed): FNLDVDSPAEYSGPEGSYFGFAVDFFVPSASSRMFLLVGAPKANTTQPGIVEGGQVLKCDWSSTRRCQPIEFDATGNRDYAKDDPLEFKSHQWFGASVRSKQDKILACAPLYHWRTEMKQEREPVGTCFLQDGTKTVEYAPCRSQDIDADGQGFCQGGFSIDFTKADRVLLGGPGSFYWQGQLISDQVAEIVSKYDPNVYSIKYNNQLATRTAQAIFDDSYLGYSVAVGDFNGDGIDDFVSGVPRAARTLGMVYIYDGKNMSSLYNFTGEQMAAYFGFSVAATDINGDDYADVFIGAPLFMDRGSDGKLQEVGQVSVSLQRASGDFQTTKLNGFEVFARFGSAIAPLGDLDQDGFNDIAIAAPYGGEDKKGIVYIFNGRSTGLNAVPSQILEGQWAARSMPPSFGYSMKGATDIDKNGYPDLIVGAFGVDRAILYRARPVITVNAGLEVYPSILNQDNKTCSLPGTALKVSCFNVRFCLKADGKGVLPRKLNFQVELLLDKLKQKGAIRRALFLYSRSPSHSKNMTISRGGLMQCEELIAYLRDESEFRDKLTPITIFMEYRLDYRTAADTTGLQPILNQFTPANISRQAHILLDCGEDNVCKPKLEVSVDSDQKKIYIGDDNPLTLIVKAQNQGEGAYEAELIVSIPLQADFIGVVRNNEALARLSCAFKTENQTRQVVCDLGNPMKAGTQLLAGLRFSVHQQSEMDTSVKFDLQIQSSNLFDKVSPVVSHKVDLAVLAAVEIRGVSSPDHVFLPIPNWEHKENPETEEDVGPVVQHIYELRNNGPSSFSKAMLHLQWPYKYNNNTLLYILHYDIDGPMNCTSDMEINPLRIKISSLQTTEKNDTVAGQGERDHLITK
- Sequence (P06756 891-1048 limits assumed): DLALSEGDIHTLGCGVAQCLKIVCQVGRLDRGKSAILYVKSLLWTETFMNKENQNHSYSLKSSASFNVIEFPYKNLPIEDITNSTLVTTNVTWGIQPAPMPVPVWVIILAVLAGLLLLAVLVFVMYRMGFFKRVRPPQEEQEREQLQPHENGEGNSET
- Sequence (P18084 24-799 limits assumed): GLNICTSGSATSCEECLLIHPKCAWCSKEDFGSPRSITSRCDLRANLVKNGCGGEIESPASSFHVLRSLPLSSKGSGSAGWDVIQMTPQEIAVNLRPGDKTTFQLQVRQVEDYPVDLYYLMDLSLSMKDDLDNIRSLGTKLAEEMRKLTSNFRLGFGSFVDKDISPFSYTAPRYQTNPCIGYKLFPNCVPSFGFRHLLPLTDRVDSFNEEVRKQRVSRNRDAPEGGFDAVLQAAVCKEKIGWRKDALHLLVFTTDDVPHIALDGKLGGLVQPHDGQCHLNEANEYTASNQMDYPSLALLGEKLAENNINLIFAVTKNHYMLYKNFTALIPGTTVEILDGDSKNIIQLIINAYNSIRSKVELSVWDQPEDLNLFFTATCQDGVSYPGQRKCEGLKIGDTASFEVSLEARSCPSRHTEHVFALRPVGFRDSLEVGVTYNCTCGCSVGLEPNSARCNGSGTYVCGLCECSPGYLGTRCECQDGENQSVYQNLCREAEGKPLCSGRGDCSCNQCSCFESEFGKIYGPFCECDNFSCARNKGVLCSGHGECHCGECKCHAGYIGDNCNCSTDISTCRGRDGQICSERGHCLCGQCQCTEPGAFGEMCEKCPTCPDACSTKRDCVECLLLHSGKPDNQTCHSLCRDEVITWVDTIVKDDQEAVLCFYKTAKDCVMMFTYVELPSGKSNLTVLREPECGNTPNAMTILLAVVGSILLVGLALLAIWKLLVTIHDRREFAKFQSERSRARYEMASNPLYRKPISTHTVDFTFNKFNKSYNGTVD
- test-summary: Inhibition of integrin alphavbeta5 (unknown origin)-mediated K562 cell adhesion to vitronectin coated surface by fluorescence analysis
measured-endpoint: pIC50
Worth noting: pIC50 values are minus log10 of concentrations stated in mol/L.

O=C(O)C[C@H](NC(=O)CCCCc1ccc2c(n1)NCCC2)c1cccc(C(F)(F)F)c1 = 7.20
Cc1ccc(C(CC(=O)O)NC(=O)CCCCc2ccc3c(n2)NCCC3)cc1 (racemic) = 7.00
Cc1ccc(C(CC(=O)O)NC(=O)CCCCc2ccc3c(n2)NCCC3)cc1C (racemic) = 7.20
Cc1ccccc1C(CC(=O)O)NC(=O)CCCCc1ccc2c(n1)NCCC2 (racemic) = 7.70
O=C(O)CC(NC(=O)CCCCc1ccc2c(n1)NCCC2)c1cccc(OC(F)(F)F)c1 (racemic) = 7.10
O=C(O)CC(NC(=O)CCCCc1ccc2c(n1)NCCC2)c1ccccc1 (racemic) = 7.10
O=C(O)CC(NC(=O)CCCCc1ccc2c(n1)NCCC2)c1ccc(-c2ccccc2)cc1 (racemic) = 6.20
O=C(O)CC(NC(=O)CCCCc1ccc2c(n1)NCCC2)c1ccc(OC(F)(F)F)cc1 (racemic) = 6.30
O=C(O)CC(NC(=O)CCCCc1ccc2c(n1)NCCC2)c1cccc(F)c1 (racemic) = 7.80

Shift focus to the following entry.
Need pIC50, item O=C(O)CC(NC(=O)CCCCc1ccc2c(n1)NCCC2)c1ccc(Cl)c(C(F)(F)F)c1 (single isomer, unassigned; enantiomer 2) 6.20
